reported endpoint: melting point

smiles_str=CC(C)c1c(I)sc2ncc(C#N)c(Cl)c12 result="177 to 179 °C"
smiles_str=Cc1cc2c(Cl)c(C#N)cnc2s1 result="110 to 112 °C"
smiles_str=N#Cc1cnc2sc(Br)cc2c1O result="> 255 °C"

Task: # input molecule: "Cc1csc2[nH]cc(C#N)c(=O)c12" ; wanted: its melting point
Result: 285 °C

Task: # input molecule: "N#Cc1cnc2sc(-c3ccccc3)cc2c1Cl" ; wanted: its melting point
Result: 202 to 204 °C
